// data source = ChEMBL document CHEMBL3885861

- Species on record: Rattus norvegicus
- protocol_description: Open TG-GATES - Regimen: Single
- Type: toxicity, organism-based, Sprague-Dawley
- Set-up: regimen Single, gender Male, age 6 weeks
- protocol_conditions: in vivo, po, 0 mg/kg, 24 h, tissue Plasma, route gavage, dose level Control
measured_parameter: A/G

In [3]: df
Out[3]:
                                   compound  measured_parameter  readout_value
0        O=[N+]([O-])c1ccc2c(c1)Cc1ccccc1-2                 A/G            1.1
1  CC(CN1c2ccccc2Sc2ccccc21)N(C)C (centres undefined)                 A/G            1.3
2  CN(C)[C@@H]1C(O)=C(C(N)=O)C(=O)[C@@]2(O)C(O)=C3C(=O)c4c(O)cccc4[C@@](C)(O)[C@H]3C[C@@H]12                 A/G            2.3
3  CN1C(C(=O)Nc2ccccn2)=C(O)c2sc(Cl)cc2S1(=O)=O                 A/G            1.6

====

- Species on record: Rattus norvegicus
- protocol_description: Open TG-GATES - Regimen: Single
- Type: toxicity, organism-based, Sprague-Dawley
- Set-up: regimen Single, gender Male, age 6 weeks
- protocol_conditions: in vivo, po, 0 mg/kg, 24 h, route gavage, dose level Control
Listed below: TERMINAL_BW values for each entry.

molecule	TERMINAL_BW (g)
CC(CN1c2ccccc2Sc2ccccc21)N(C)C (configuration not stated)	222
C1CCC(C(CC2CCCCN2)C2CCCCC2)CC1 (configuration not stated)	228.6
COc1cc([C@@H]2c3cc4c(cc3[C@@H](O[C@@H]3O[C@@H]5CO[C@@H](C)O[C@H]5[C@H](O)[C@H]3O)[C@H]3COC(=O)[C@H]23)OCO4)cc(OC)c1O [ETOPOSIDE]	215.6
Cc1cccc(Nc2ccccc2C(=O)O)c1C	229.4
O=[N+]([O-])c1ccc2c(c1)Cc1ccccc1-2	226.9
CC(=O)Nc1nnc(S(N)(=O)=O)s1 [ACETAZOLAMIDE]	228.8
Clc1c(Cl)c(Cl)c(Cl)c(Cl)c1Cl	227.7

====

- Organism: Rattus norvegicus
- protocol_description: Open TG-GATES - Regimen: Single
- Format: toxicity, organism-based, Sprague-Dawley
- Parameters: regimen Single, gender Male, age 6 weeks
- protocol_conditions: in vivo, po, 0 mg/kg, 3 h, tissue Kidney, route gavage, dose level Control
Each entry below carries its reported KIDNEY_TOTAL.

compound	KIDNEY_TOTAL
C#C[C@]1(O)CC[C@H]2[C@@H]3CCC4=Cc5oncc5C[C@]4(C)[C@H]3CC[C@@]21C [DANAZOL]	1.9 g
CCOC(=O)[C@H](CCc1ccccc1)N[C@@H](C)C(=O)N1CCC[C@H]1C(=O)O	2 g
COc1cc([C@@H]2c3cc4c(cc3[C@@H](O[C@@H]3O[C@@H]5CO[C@@H](C)O[C@H]5[C@H](O)[C@H]3O)[C@H]3COC(=O)[C@H]23)OCO4)cc(OC)c1O [ETOPOSIDE]	2 g
Cc1cccc(Nc2ccccc2C(=O)O)c1C [MEFENAMIC ACID]	1.9 g
CN1C(C(=O)Nc2ccccn2)=C(O)c2sc(Cl)cc2S1(=O)=O [LORNOXICAM]	2 g
Clc1c(Cl)c(Cl)c(Cl)c(Cl)c1Cl [PERCHLOROBENZENE]	2 g
CC(=O)Nc1nnc(S(N)(=O)=O)s1 [ACETAZOLAMIDE]	1.9 g
CN(C)[C@@H]1C(O)=C(C(N)=O)C(=O)[C@@]2(O)C(O)=C3C(=O)c4c(O)cccc4[C@@](C)(O)[C@H]3C[C@@H]12 [TETRACYCLINE]	1.8 g
CC(CN1c2ccccc2Sc2ccccc21)N(C)C (stereo not given) [PROMETHAZINE]	1.9 g
C1CCC(C(CC2CCCCN2)C2CCCCC2)CC1 (stereo not given) [PERHEXILINE]	1.8 g
